Data origin: ChEMBL document CHEMBL4325866

Below, each entry is listed alongside its reported IC50.
biological target: Progesterone receptor (Homo sapiens, UniProt P06401); test: Displacement of [3H]progesterone from progesterone receptor in human T47D cells after 20 hrs by scintillation counting method
Sequence (P06401 whole entry): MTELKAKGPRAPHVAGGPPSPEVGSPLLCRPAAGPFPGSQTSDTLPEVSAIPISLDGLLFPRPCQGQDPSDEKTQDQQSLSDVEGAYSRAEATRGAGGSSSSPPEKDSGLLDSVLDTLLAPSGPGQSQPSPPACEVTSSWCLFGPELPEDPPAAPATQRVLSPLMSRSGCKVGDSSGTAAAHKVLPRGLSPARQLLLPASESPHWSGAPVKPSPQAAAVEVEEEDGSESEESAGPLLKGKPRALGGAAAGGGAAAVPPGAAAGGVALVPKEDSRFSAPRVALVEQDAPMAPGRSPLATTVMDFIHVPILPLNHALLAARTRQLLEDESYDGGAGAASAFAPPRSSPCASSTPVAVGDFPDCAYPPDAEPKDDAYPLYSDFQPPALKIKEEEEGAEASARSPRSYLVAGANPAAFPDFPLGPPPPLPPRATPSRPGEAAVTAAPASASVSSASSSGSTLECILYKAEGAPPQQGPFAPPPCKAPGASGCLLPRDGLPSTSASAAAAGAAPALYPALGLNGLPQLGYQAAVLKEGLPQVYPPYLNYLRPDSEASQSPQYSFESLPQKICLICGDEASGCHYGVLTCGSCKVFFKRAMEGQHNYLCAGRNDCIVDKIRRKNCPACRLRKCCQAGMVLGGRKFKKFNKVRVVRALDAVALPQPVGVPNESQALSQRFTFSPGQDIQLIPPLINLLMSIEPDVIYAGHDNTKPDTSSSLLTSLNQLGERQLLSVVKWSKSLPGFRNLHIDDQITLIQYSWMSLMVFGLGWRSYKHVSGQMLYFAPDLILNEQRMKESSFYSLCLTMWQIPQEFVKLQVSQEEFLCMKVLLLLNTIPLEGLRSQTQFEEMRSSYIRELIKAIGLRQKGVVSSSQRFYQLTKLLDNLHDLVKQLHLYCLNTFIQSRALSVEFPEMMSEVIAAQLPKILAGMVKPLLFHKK

>  <input smiles>
Fc1ccc(-n2ncc3c2C=C[C@]2(CCCC=C2c2ccccc2)C3)cc1

>  <IC50>
> 1000 nM

$$$$
>  <input smiles>
O[C@@]1(c2ccccc2)CCCC[C@@]12C=Cc1c(cnn1-c1ccc(F)cc1)C2

>  <IC50>
780 nM

$$$$

Shift focus to the following entry.
Query string: Provide measured IC50 value, entry: O[C@@]1(c2ccccc2)CCCCC[C@@]12C=Cc1c(cnn1-c1ccc(F)cc1)C2
Result string: > 1000 nM
